Target: UniProt Q14524
Sequence (Q14524 other isoform, or with tags, fused parts or gaps): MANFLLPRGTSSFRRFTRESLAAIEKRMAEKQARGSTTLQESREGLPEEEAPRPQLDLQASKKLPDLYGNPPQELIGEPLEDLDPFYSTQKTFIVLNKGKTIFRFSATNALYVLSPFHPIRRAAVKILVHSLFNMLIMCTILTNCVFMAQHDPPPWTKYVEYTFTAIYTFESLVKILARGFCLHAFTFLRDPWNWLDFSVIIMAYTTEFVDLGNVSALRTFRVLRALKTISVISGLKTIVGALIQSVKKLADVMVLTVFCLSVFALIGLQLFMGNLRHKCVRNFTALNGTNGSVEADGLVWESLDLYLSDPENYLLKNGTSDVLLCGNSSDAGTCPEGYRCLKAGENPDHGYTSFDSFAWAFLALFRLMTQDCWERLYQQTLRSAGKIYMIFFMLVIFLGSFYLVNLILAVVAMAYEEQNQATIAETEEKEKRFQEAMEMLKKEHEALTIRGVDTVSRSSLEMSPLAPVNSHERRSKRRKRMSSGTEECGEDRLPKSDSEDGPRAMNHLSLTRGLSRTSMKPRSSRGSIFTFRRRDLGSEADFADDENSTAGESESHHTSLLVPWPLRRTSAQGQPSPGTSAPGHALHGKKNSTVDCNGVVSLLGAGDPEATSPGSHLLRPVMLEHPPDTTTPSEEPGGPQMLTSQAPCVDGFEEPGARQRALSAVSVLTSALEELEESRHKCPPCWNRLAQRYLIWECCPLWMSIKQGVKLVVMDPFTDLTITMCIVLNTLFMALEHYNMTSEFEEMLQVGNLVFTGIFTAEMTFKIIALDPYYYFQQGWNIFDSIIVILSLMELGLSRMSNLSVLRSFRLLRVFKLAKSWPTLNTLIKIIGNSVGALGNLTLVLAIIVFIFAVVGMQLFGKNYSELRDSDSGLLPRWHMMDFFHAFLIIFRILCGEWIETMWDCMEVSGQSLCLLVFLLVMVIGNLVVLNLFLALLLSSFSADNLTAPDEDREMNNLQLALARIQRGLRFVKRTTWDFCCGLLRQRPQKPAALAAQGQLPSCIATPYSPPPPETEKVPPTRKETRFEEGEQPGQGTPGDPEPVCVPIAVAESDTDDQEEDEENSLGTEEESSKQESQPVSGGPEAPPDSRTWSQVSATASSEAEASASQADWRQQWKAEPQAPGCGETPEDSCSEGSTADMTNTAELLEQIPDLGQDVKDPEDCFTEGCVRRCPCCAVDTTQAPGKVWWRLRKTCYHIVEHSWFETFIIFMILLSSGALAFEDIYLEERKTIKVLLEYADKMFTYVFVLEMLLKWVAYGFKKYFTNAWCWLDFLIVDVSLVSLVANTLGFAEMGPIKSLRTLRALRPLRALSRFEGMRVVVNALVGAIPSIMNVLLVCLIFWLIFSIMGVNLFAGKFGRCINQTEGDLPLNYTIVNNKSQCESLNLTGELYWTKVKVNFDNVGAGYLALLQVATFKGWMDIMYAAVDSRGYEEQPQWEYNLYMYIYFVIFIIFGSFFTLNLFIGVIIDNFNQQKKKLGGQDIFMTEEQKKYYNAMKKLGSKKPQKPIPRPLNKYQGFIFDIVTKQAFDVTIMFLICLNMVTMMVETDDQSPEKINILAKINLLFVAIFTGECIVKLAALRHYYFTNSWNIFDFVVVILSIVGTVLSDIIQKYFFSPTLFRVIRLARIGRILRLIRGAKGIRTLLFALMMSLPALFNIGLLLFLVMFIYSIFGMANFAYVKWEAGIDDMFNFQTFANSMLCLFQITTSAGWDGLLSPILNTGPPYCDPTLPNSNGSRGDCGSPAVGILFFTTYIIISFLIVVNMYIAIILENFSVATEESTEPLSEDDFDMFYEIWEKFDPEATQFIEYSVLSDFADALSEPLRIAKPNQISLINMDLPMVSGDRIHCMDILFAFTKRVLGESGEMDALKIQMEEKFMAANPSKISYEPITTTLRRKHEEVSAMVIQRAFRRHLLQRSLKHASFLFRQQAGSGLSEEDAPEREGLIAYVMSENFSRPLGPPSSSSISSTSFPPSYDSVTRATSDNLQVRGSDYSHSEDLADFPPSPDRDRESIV
Experiment: Sodium Influx Assay (Flux), NaV1.5
Settings: read-out: Flux NaV1.5 IC50; Trex HEK293 cells, ANG2 dye; arithmetic mean
Counter-ions that a name gives are not always drawn.
Here the recorded IC50 is given for each entry.

{"columns": ["compound", "system_tested", "readout_relation", "IC50 [µM]"],
 "data": [
  ["CN(c1cc(F)c(S(=O)(=O)Nc2cscn2)cc1Cl)[C@H]1CCN(Cc2cc(Cl)ccc2Cl)C1", "UniProt Q14524", "=", 3.17],
  ["Cc1cc(S(=O)(=O)Nc2cccc(F)n2)c(F)cc1N(C)[C@H]1CCN(Cc2ccccc2)C1", "UniProt Q14524", ">", 30],
  ["Cc1ccc(F)c(CN2CC[C@H](N(C)c3cc(F)c(S(=O)(=O)Nc4cscn4)cc3Cl)C2)n1", "UniProt Q14524", ">", 30],
  ["O=S(=O)(Nc1nccs1)c1ccc(OC2CCN(Cc3ccccc3F)CC2)c(Cl)c1", "UniProt Q14524", "=", 8.16],
  ["C=Cc1c(O[C@H]2CCN(Cc3ccccc3)C2)cc(F)c(S(=O)(=O)Nc2cscn2)c1F [Example 275, 2,2,2-trifluoroacetate]", "UniProt Q14524", "=", 17.6],
  ["Cc1cc(S(=O)(=O)Nc2cscn2)c(F)cc1O[C@@]1(C)CCN(Cc2ccccc2)C1 [Example 159, formate]", "UniProt Q14524", ">", 30],
  ["Cc1cc(S(=O)(=O)Nc2cscn2)c(F)cc1N(C)[C@H]1CCN(Cc2ncc(Cl)s2)C1", "UniProt Q14524", "=", 12.1],
  ["C[C@H](c1ccccc1)N1CCC(Oc2ccc(S(=O)(=O)Nc3cscn3)c(F)c2F)CC1 [Example 313, formate]", "UniProt Q14524", ">", 30],
  ["Cc1cc(S(=O)(=O)Nc2cscn2)c(F)cc1N(C)[C@H]1CCN(CC2CCCCC2)C1", "UniProt Q14524", ">", 30],
  ["Cc1cc(S(=O)(=O)Nc2cscn2)c(F)cc1N(C)[C@H]1CCN(Cc2ccn(CC(F)F)n2)C1 [Example 153, 2,2,2-trifluoroacetate]", "UniProt Q14524", ">", 30],
  ["Cc1cc(S(=O)(=O)Nc2cscn2)c(F)cc1N(C)[C@H]1CCN([C@H]2CCc3ccccc32)C1", "UniProt Q14524", "=", 22.5],
  ["Cc1c(N(C)[C@H]2CCN(Cc3cccc(C(F)(F)F)n3)C2)cc(F)c(S(=O)(=O)Nc2cscn2)c1F [Example 224, 2,2,2-trifluoroacetate]", "UniProt Q14524", ">", 30],
  ["CN(c1ccc(S(=O)(=O)Nc2ncns2)cc1Cl)[C@H]1CCN(Cc2cc(F)ccc2F)C1", "UniProt Q14524", "=", 27],
  ["CN(c1cc(F)c(S(=O)(=O)Nc2cscn2)cc1Cl)[C@H]1CCN(Cc2cccc(C(F)(F)F)n2)C1", "UniProt Q14524", "=", 25.4],
  ["CC(C)(c1ccccc1)N1CCC(Oc2ccc(S(=O)(=O)Nc3nccs3)cc2Cl)CC1 [Example 59, 2,2,2-trifluoroacetate]", "UniProt Q14524", "=", 7.44],
  ["CN(c1cc(F)c(S(=O)(=O)Nc2cscn2)c(F)c1)[C@H]1CCN(Cc2cccc(C(F)F)c2)C1 [Example 287, 2,2,2-trifluoroacetate]", "UniProt Q14524", "=", 8.26],
  ["CCN(c1ccc(S(=O)(=O)Nc2ncns2)cc1Cl)[C@H]1CCN(Cc2cccc(C)c2)C1", "UniProt Q14524", ">", 30],
  ["Cc1c(O[C@@]2(C)CCN(Cc3ccccc3)C2)cc(F)c(S(=O)(=O)Nc2cscn2)c1F [Example 158, formate]", "UniProt Q14524", ">", 30],
  ["Cc1ccc(CN2CC[C@H](N(C)c3cc(F)c(S(=O)(=O)Nc4cscn4)cc3C)C2)o1", "UniProt Q14524", ">", 30],
  ["Cc1cc(C)cc(CN2CCC(Oc3ccc(S(=O)(=O)Nc4ncns4)cc3Cl)C(C)(C)C2)c1 (centres unmarked) [Example 3, 2,2,2-trifluoroacetate]", "UniProt Q14524", "=", 6.17],
  ["CN(c1cc(F)c(S(=O)(=O)Nc2cscn2)cc1Cl)[C@H]1CCN(Cc2cccn2C)C1", "UniProt Q14524", ">", 30],
  ["Cc1cc(S(=O)(=O)Nc2cscn2)c(F)cc1N(C)[C@H]1CCN(CCC(C)(C)C)C1 [Example 125, formate]", "UniProt Q14524", ">", 30],
  ["Cc1ccc(CN2CC[C@H](N(C)c3cc(F)c(S(=O)(=O)Nc4cscn4)cc3Cl)C2)c(F)c1", "UniProt Q14524", "=", 8.85],
  ["CN(c1cc(F)c(S(=O)(=O)Nc2cscn2)cc1Cl)[C@H]1CCN(Cc2ccccc2O)C1", "UniProt Q14524", "=", 20.2],
  ["CCCc1ccc(CN2CC[C@H](N(C)c3cc(F)c(S(=O)(=O)Nc4cscn4)cc3Cl)C2)cc1", "UniProt Q14524", "=", 4.96],
  ["CN(c1cc(F)c(S(=O)(=O)Nc2cscn2)cc1Cl)[C@H]1CCN(Cc2ncc3ccccn23)C1", "UniProt Q14524", ">", 30],
  ["COc1cccc(CN2CCC(Oc3ccc(S(=O)(=O)Nc4nccs4)cc3Cl)CC2)c1", "UniProt Q14524", "=", 3.54],
  ["CN(c1cc(F)c(S(=O)(=O)Nc2cscn2)cc1Cl)[C@H]1CCN(Cc2cccc(F)c2F)C1", "UniProt Q14524", "=", 12.8],
  ["Cc1cc(CN2CC[C@H](N(C)c3cc(F)c(S(=O)(=O)Nc4cscn4)cc3C)C2)ns1 [Example 121, formate]", "UniProt Q14524", ">", 30]
]}

The values you see were collected from patent US10246453B2.
